Experiment: chemical genetic growth profiling, strain panel (AID 1159580);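 also: tested at 20 µM; growth read once vehicle control cultures reached saturation at 30 °C; 1 = growth at the plate median or of vehicle wells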
Settings: S. cerevisiae deletion strains, growth OD, locus YDR335W, strain msn5, hits give low values
The whole screen tested about 5,500 compounds, of which about 2,000 (36%) were called active. Inconclusive results (about 18%) are left out. The list shows a part of the results.
READOUT KIND: normalized growth
Give bare numbers.

Recorded results for 6 molecules are shown here.
MOLECULE	normalized growth
CCN[C@@H]1C[C@H](N)[C@@H](O[C@H]2OC(CN)=CC[C@H]2N)[C@H](O)[C@H]1OC1OC[C@](C)(O)[C@H](NC)[C@H]1O (some centres undefined)	0.986
C=C[C@H]1CN2CC[C@H]1C[C@@H]2[C@@H](OC(=O)OCC)c1ccnc2ccc(OC)cc12	0.983
COc1ccc(Cl)cc1C(=O)NCCc1ccc(S(=O)(=O)NC(=O)NC2CCCCC2)cc1	1.01
C=C(C)[C@H]1COc2cc3oc(=O)ccc3cc2O1	0.857
NC(=O)CN1CCCC1=O	0.989
O=c1c(O)c(-c2ccc(O)c(O)c2)oc2c(O[C@@H]3O[C@H](CO)[C@H](O)[C@@H](O)[C@H]3O)c(O)cc(O)c12	1.02

Look at each molecule and report its normalized growth.
1. CN[C@@H]1[C@@H](O)C(OC2[C@@H](N)C[C@@H](N)[C@H](O[C@H]3O[C@H](C(C)O)[C@@H](O)[C@H](O)[C@H]3N)[C@H]2O)OC[C@]1(C)O (some centres undefined)
2. C[C@]12CCC3c4ccc(OS(=O)(=O)O)cc4CCC3C1CC[C@H]2O (some centres undefined)
3. COc1cccc2c(C)cc(=O)[nH]c12

Result ::
[0.979, 0.968, 0.941]

====

Test: chemical genetic growth profiling, strain panel (AID 1159580)
Settings: S. cerevisiae deletion strains, growth OD, locus YDL035C, strain GPR1
Hit rate of the full screen: of about 5,500 compounds, about 2,000 (36%) were called active. About 18% were inconclusive and are not listed. Rule as the data show it: active = normalized growth mostly below about 0.91 (no sharp cut-off); inconclusive = no clear call, values can overlap the other calls; inactive = mostly above about 0.92. Some of the results follow.
Outcome field: choose from active, inactive

These recorded examples may help you get a feel for the data.
>>> df
                                   compound  label_value
0          CN(C)c1nc(N)c(C(=O)N=C(N)N)nc1Cl     inactive
1  CC(C)c1c(O)ccc2c1CCC1[C@@](C)(C=O)CCC[C@]21C (stereo partly specified)       active
2  CC(C)c1c(O)ccc2c1CCC1[C@@](C)(CO)CCC[C@]21C (stereo partly specified)     inactive
3  C[C@]12CCC3c4ccc(O)cc4CCC3C1CC[C@@H]2O (stereo partly specified)     inactive
4  COC(=O)[C@]1(C)CCC[C@]2(C)c3ccc(C(C)C)cc3C(=O)CC12 (stereo partly specified)     inactive

Query :: Which outcome was assigned to NC(N)=NC(=O)c1nc(Cl)c(N)nc1N in this test?
Result :: inactive

====

Assay: chemical genetic growth profiling, strain panel (AID 1159580)
Settings: S. cerevisiae deletion strains, growth OD, locus YHR094C, strain hxt1, hits give low values
About 2,000 (36%) of roughly 5,500 compounds were called active. Not shown: some 18% with an inconclusive outcome. The list shows a part of the results.
READOUT KIND: normalized growth
Give bare numbers.

As a guide, the following entries are already answered.
COMPOUND	normalized growth
COc1cc2occc2c2oc(=O)ccc12	0.975
CCCCC1C(=O)N(c2ccccc2)N(c2ccc(O)cc2)C1=O (stereo not given)	0.993

Look up normalized growth for the entries below, preserving their order.
1. CCOC(=O)c1c(C)cc(OC)cc1O
2. CCC/C=C1\OC(=O)C2=C1CCC=C2
3. NS(=O)(=O)c1cc(C2(O)NC(=O)c3ccccc32)ccc1Cl (stereo not given)
4. CC(C)(O)[C@@H]1Cc2cc3ccc(=O)oc3cc2O1

Result ::
1: 0.946; 2: 0.982; 3: 1.01; 4: 1.01

====

Assay: chemical genetic growth profiling, strain panel (AID 1159580);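 also: tested at 20 µM; growth read once vehicle control cultures reached saturation at 30 °C; 1 = growth at the plate median or of vehicle wells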
Conditions: S. cerevisiae deletion strains, growth OD, locus YPL153C, strain RAD53
In all, about 5,500 compounds went through this assay and about 2,000 (36%) were called active. About 18% were inconclusive and are not listed. Rule as the data show it: active = normalized growth mostly below about 0.91 (no sharp cut-off); inconclusive = no clear call, values can overlap the other calls; inactive = mostly above about 0.92. This is one part of the list.
Assign a class; possible classes are active, inactive

Some solved entries appear below for comparison.
                                   compound  label_value
0       OC(COc1ccc(F)cc1)(c1ccccc1)c1ccccc1     inactive
1  O=C1C(Cl)=C(Oc2cc(Cl)c(Cl)cc2Cl)C(=O)c2ccccc21       active
2        COCCCNC(=S)N/N=C\c1cc(Cl)cc(Cl)c1O     inactive
3         O=C1Nc2ccccc2/C1=C\c1c(Cl)cccc1Cl     inactive
4             Oc1c(Br)cc(Br)cc1/C=N\n1cnnc1       active

Query :: Per the assay record, what outcome was assigned to O=C1/C(=C/c2ccccn2)CCc2ccccc21 ?
Result :: inactive

Query :: Identify the outcome logged in this assay for the compound shown: CN(C)C=Nc1nnc(Sc2nc3c(Cl)cc(Cl)cc3s2)s1
Result :: inactive

Query :: // outcome(item) with item = CCOC(=O)N/N=C\c1cc(Cl)cc(Cl)c1O
Result :: active

Query :: Outcome logged for COc1ccccc1NC(=S)N/N=C\c1ccccc1O in this assay:
Result :: inactive

Query :: // return assay outcome for Cc1cc(Cl)ccc1NNC(=O)c1sccc1Br
Result :: inactive

Query :: Tell me the recorded outcome of this test for Oc1c(Cl)cc(Cl)cc1C=Nc1ccc(Sc2ccccc2)nc1Sc1ccccc1 .
Result :: active

====

Assay: chemical genetic growth profiling, strain panel (AID 1159580);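 also: tested at 20 µM; growth read once vehicle control cultures reached saturation at 30 °C; 1 = growth at the plate median or of vehicle wells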
Details: S. cerevisiae deletion strains, growth OD, locus YGL248W, strain PDE1, hits give low values
Out of some 5,500 compounds screened, about 2,000 (36%) were called active. About 18% were inconclusive and are not listed. This is one part of the list.
Hi there, I'd appreciate the recorded normalized growth for every entry that follows.
Numbers only.

COMPOUND	normalized growth
O=C(OC1Cc2c(O)cc(O)cc2OC1c1cc(=O)c(O)c2c(O)c(O)cc(C3Oc4cc(O)cc(O)c4CC3O)c2c1)c1cc(O)c(O)c(O)c1 (centres undefined)	0.345
CC(=O)OC1CN2CCC1CC2 (centres undefined)	1.01
COC(=O)c1c(C)cc(OC)cc1O	0.997
Cc1cc(OC(=O)c2c(C)cc(O)cc2O)cc(O)c1C(=O)O	1
O=C(O[C@@H]1Cc2c(O)cc(O)cc2O[C@@H]1c1cc(O)c(=O)c2c(O)c(O)cc([C@H]3Oc4cc(O)cc(O)c4C[C@H]3OC(=O)c3cc(O)c(O)c(O)c3)c2c1)c1cc(O)c(O)c(O)c1	0.681
CC/C(=C(/CC)c1ccc(O)cc1)c1ccc(O)cc1	0.915
O=C(O[C@@H]1Cc2c(O)cc(O)cc2O[C@@H]1c1cc(O)c(=O)c2c(O)c(O)cc([C@H]3Oc4cc(O)cc(O)c4C[C@H]3O)c2c1)c1cc(O)c(O)c(O)c1	0.474
COc1cc(OC)c2c(=O)c(OC)c(-c3ccc(OC)c(OC)c3)oc2c1	0.97

Query :: Name the recorded normalized growth of the compound listed here: CCOC(=O)c1c(C)cc(O)cc1O
Result :: 0.877

====

Test: chemical genetic growth profiling, strain panel (AID 1159580);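 also: tested at 20 µM; growth read once vehicle control cultures reached saturation at 30 °C; 1 = growth at the plate median or of vehicle wells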
Details: S. cerevisiae deletion strains, growth OD, locus YKL009W, strain mrt4, hits give low values
Out of some 5,500 compounds screened, about 2,000 (36%) were called active. About 18% were inconclusive and are not listed. The list shows a part of the results.
Binary label based on normalized growth with cut-off 1: below gives Y, not below gives N.

                                   compound  label_value
0                COc1cccc2c(C)cc(=O)[nH]c12            Y
1                 COc1c2ccoc2cc2oc(=O)ccc12            Y
2  CC(C)c1c(O)ccc2c1CCC1[C@@](C)(CO)CCC[C@]21C (stereo not given in full)            Y
3                  COc1cc(OC)c2ccc(=O)oc2c1            Y
4   O=C1C=C2C(=CCOC2O)O1 (stereo not given)            Y
5          COc1c(C(C)C)oc2cc3oc(=O)ccc3cc12            Y
6  CCCCCCCCCCCCCCCCCC(=O)OC(CC(=O)O)C[N+](C)(C)C (stereo not given)            Y
7  COc1ccc2c(c1)CCC1C2CCC2(C)C1C[C@@H](O)C2O (stereo not given in full)            Y
8  Oc1cc2c(cc1O)C1c3ccc(O)c(O)c3OCC1(O)C2 (stereo not given)            N
9  CC(C)C1COc2cc3oc(=O)ccc3cc2O1 (stereo not given)            Y

Query :: Problem: For the compound C[N+](C)(C)CC(O)CC(=O)O (stereo not given) , is normalized growth under 1?
Result :: N

Query :: A record lists CC(C)N(CCC(C(N)=O)(c1ccccc1)c1ccccn1)C(C)C (stereo not given) . Is its normalized growth below 1?
Result :: Y

Query :: hey, is normalized growth for CC(C)c1c(O)c(-c2cc3c(c(C(C)C)c2O)CCC2C(C)(C)CCC[C@]32C)cc2c1CCC1C(C)(C)CCC[C@]21C (stereo not given in full) lower than 1 or not?
Result :: N

Query :: Decide: normalized growth of C[C@]12CCC3c4ccc(O)cc4CCC3C1CC[C@@H]2O (stereo not given in full) strictly below 1?
Result :: Y

Query :: Regarding COC(=O)[C@@]1(C)CCC[C@]2(C)c3ccc(O)c(C(C)C)c3CCC12 (stereo not given in full) , kindly confirm whether its normalized growth is beneath 1.
Result :: Y

Query :: Find out if reported normalized growth for CC(=O)OC(C)C[N+](C)(C)C (stereo not given) is less than 1
Result :: N
